Each recorded value in this set is attributed to a collection of fitness landscapes (doi:10.1016/j.celrep.2020.107928).

B1: Caulobacter ParB omega fusion; a variant is named by its letters at X, in order, B8GW30 (parent)
chain: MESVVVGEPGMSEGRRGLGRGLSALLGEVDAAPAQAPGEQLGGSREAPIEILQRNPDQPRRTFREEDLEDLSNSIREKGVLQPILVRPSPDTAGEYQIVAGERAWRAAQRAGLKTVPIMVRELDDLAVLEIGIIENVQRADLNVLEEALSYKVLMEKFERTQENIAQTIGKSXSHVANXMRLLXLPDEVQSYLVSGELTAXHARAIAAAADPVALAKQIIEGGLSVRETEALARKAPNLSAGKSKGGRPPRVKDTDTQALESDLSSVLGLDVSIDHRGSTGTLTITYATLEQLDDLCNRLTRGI

variants of: B1; assay: one-hybrid fitness for binding parS DNA (scaled: cognate 1, non-cognate 0); higher = stronger binding; settings: with parS DNA site
Whole data set: some 81,000 sequences, median “one-hybrid fitness for binding parS DNA” near -0.17, cut for the highest 2% near 0.51. Only a selection was taken, and the highest values are over-represented in it overall.
MEASURE_NAME: one-hybrid fitness for binding parS DNA

INSERT INTO assay_data (mutations, value_qualifier, assay_value) VALUES
  ('EVNR', '≤', 0.2),
  ('MHTF', '≤', 0.2),
  ('RVPH', '≤', 0.2),
  ('RNFG', '=', 0.662),
  ('RWKT', '=', 0.811),
  ('RTIY', '=', 0.418),
  ('RSFK', '≤', 0.2),
  ('RWKQ', '≤', 0.2),
  ('VWYT', '≤', 0.2),
  ('RTPC', '=', 0.625),
  ('RWSN', '=', 0.318),
  ('RDFG', '≤', 0.2),
  ('RTPF', '≤', 0.2),
  ('RVIH', '≤', 0.2),
  ('RWST', '=', 0.665),
  ('RTIC', '=', 0.912),
  ('PNPL', '≤', 0.2),
  ('RCFG', '=', 1.01),
  ('RVPC', '=', 0.637),
  ('RRVA', '=', 0.78),
  ('RLHT', '=', 0.937),
  ('RRKA', '=', 0.532),
  ('RNAG', '=', 0.853),
  ('IAEG', '≤', 0.2),
  ('MLHS', '≤', 0.2),
  ('KWCC', '≤', 0.2),
  ('RWVT', '=', 0.43),
  ('ACNL', '≤', 0.2),
  ('RLFQ', '≤', 0.2),
  ('TTSM', '≤', 0.2),
  ('RLHR', '≤', 0.2),
  ('RWLT', '=', 0.556),
  ('RSFG', '=', 0.94),
  ('QLMK', '≤', 0.2),
  ('RPFG', '≤', 0.2);
